// provenance: patent EP0912534B1

target: cloned human m4 muscarinic receptor (Homo sapiens); assay: Muscarinic binding activity (3H-QNB displacement), m4; conditions: membranes of transfected CHO cells, read-out: Ki m4
Sequence (P08173 whole entry): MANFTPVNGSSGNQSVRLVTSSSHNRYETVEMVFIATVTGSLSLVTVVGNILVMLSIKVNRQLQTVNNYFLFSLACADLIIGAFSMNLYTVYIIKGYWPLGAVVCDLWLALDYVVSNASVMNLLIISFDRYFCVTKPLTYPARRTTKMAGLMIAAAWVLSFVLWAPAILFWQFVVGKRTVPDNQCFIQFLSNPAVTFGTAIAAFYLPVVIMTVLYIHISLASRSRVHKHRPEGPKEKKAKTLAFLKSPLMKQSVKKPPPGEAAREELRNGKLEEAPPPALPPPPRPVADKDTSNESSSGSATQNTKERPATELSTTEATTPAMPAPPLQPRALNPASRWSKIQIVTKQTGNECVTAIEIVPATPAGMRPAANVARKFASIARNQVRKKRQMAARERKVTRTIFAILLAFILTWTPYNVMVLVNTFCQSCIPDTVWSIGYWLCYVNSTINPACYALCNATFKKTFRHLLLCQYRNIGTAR
readout-label: Ki (nM)
Answers are plain numbers, in nM.

Below, each entry is followed by its recorded Ki result.
c1cnc(Oc2ccc3c(c2)CCCC3N2CCN(C3CCCCC3)CC2)nc1 (stereo not shown) | 35
c1cnc(Oc2ccc3c(c2)CCC3N2CCN(C3CCCCC3)CC2)nc1 (single isomer, unassigned) | 17
Nc1ccc(Oc2ccc3c(c2)CCCC3N2CCN(C3CCCCC3)CC2)cc1 (stereo not shown) | 21

Input line: Requested field: Ki. Item: O=S(=O)(c1ccccc1)c1ccc2c(c1)CCC2N1CCN(CCO)CC1 (stereo not shown)
Output line: 106
